Provide the recorded pKi for the entries that follow.
- TEST_SYSTEM: Cannabinoid receptor 2 (Homo sapiens)
- Sequence (P34972 whole entry): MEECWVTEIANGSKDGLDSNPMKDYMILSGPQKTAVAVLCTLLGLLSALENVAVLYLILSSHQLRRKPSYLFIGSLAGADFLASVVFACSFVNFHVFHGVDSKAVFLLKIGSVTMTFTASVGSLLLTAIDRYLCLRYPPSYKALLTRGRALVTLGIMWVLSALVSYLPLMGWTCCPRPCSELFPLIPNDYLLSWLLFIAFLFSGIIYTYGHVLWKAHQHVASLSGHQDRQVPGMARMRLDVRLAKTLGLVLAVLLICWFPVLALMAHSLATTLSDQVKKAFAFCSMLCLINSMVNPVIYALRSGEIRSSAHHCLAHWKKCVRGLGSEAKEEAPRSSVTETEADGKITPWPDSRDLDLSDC
- PROCEDURE_DETAILS: Displacement of [3H]CP-55,940 from human recombinant CB2 receptor expressed in CHO cell membranes after 60 mins by scintillation counting analysis
Here pKi is given on a logarithmic scale as minus log10 of the concentration in mol/L.

Please look up its pKi: CCCCCn1cc(C(=O)NC23CC4CC(C)(CC(C)(C4)C2)C3)c(=O)c2c(C)nn(C)c21
8.01

Now give it for CCCCCn1cc(C(=O)Nc2ccccc2)c(=O)c2c(C)nn(C)c21 too.
6.28

Now give it for CCCCn1cc(C(=O)NC2CCCCC2)c(=O)c2c(C)nn(C)c21 too.
6.86

====

- Species: Homo sapiens
- PROCEDURE_DETAILS: Selectivity index, ratio of Ki for human recombinant CB1 receptor to Ki for human recombinant CB2 receptor
Provide the recorded Ratio Ki for the entries that follow.

Please look up its Ratio Ki: CCCCCn1cc(C(=O)NC2CCCCC2)c(=O)c2c(C)nn(C)c21
5.9

Now give it for CCCCCCn1cc(C(=O)NC2CCCCC2)c(=O)c2c(C)nn(C)c21 too.
12

Now give it for Cc1nn(C)c2c1c(=O)c(C(=O)NC1CCCCC1)cn2Cc1ccccc1 too.
4.4

Now give it for CCCCn1cc(C(=O)NC2CCCCC2)c(=O)c2c(C)nn(C)c21 too.
9.1

Now give it for CCCCCn1cc(C(=O)NC2CCCCC2)c(=O)c2c(CC)nn(C)c21 too.
2

Now give it for CCCCCn1cc(C(=O)NC2CCCCCC2)c(=O)c2c(C)nn(C)c21 too.
23

Now give it for CCCCCn1cc(C(=O)NCc2ccccc2)c(=O)c2c(C)nn(C)c21 too.
> 2.7

Now give it for CCCCCn1cc(C(=O)NC2CCCCCC2)c(=O)c2c(C)noc21 too.
7.8

Now give it for CCCCCn1cc(C(=O)NC23CC4CC(CC(C4)C2)C3)c(=O)c2c(C)nn(C)c21 too.
84

Now give it for CCCCCn1cc(C(=O)NC2CCCCCC2)c(=O)c2c(-c3ccc(Cl)cc3)nn(C)c21 too.
> 3.5

Now give it for CCCn1cc(C(=O)NC2CCCCC2)c(=O)c2c(C)nn(C)c21 too.
1.8

Now give it for CCCCCn1cc(C(=O)N[C@H]2CC[C@@H](C)CC2)c(=O)c2c(C)nn(C)c21 too.
68

====

- TEST_SYSTEM: Cannabinoid receptor 2 (Homo sapiens)
- PROCEDURE_DETAILS: Displacement of [3H]CP-55,940 from human recombinant CB2 receptor expressed in CHO cell membranes at 1 to 10000 nM after 60 mins by scintillation counting analysis
MEASUREMENT_KIND: inhibition (%)
Give just the number in %; leave the unit off.

Please look up its inhibition: CCCCCn1cc(C(=O)NC2CCCCC2)c(=O)c2c(-c3ccccc3)nn(C)c21
1

Now give it for Cc1ccc(Cn2cc(C(=O)NC3CCCCC3)c(=O)c3c(C)nn(C)c32)cc1 too.
33

Now give it for CCCCCn1cc(C(=O)Nc2ccc(OC)cc2)c(=O)c2c(C)nn(C)c21 too.
33

Now give it for Cc1nn(C)c2c1c(=O)c(C(=O)NC1CCCCC1)cn2CCCCC#N too.
11

Now give it for CCCCCn1cc(C(=O)Nc2ccc(F)cc2)c(=O)c2c(C)nn(C)c21 too.
37

Now give it for C=CCn1cc(C(=O)NC2CCCCC2)c(=O)c2c(C)nn(C)c21 too.
42

Now give it for Cc1nn(C)c2c1c(=O)c(C(=O)NC1CCCCC1)cn2CCN1CCOCC1 too.
36

Now give it for CCOCCn1cc(C(=O)NC2CCCCC2)c(=O)c2c(C)nn(C)c21 too.
1

Now give it for CCCCCn1cc(C(=O)NC2CCCCCC2)c(=O)c2c(-c3ccccc3)nn(C)c21 too.
1

These entries and their values trace back to ChEMBL document CHEMBL2311525.
